measurementTarget: Sphingosine 1-phosphate receptor 4 (Homo sapiens, UniProt O95977)
Sequence (O95977 whole entry): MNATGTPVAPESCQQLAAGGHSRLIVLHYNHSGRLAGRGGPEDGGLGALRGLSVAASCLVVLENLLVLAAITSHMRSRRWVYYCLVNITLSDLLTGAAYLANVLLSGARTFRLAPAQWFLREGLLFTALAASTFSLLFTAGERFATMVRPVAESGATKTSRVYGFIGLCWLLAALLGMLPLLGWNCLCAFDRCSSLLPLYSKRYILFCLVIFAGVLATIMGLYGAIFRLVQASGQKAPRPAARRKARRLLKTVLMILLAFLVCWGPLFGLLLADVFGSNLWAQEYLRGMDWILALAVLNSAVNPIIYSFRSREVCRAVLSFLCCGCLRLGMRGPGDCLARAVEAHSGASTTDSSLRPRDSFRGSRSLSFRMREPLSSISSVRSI
endpointName: IC50 (nM)
Numbers only here, please. The scale is nM.

Field: example entries. Status: answers known.
{"smilesInput": "C[C@](N)(COP(=O)(O)O)C(=O)Nc1ccc(OCCCCc2ccc(-c3ccccc3)cc2)cc1", "endpointName": "IC50", "experimentalResult": 24.8}
{"smilesInput": "C[C@](N)(COP(=O)(O)O)C(=O)Nc1ccc(OCCCCCc2ccccc2)cc1", "endpointName": "IC50", "experimentalResult": 3.6}

Moving on to the next molecule.
Item under review: "C[C@](N)(COP(=O)(O)O)C(=O)Nc1ccc(OCCCCC2CCCCC2)cc1" . Reported IC50?
8.3

###

Tested on: Mus musculus
assayProtocol: Immunomodulatory activity in C57BL/6 mouse assessed as lymphopenia at 10 mg/kg, po after 6 hrs by complete blood count analysis
Assay type: functional
Calls of active or inactive are those of the source. No cut-off for these calls is given here.
endpointName: Activity

The following compounds have reported results that may help.
{"smilesInput": "CC(C)Oc1cccc(-c2ccc(NC(=O)[C@@](C)(N)CO)cc2)c1", "measurementTarget": "Mus musculus", "Activity": "23%"}
{"smilesInput": "CCOc1cccc(Oc2ccc(NC(=O)[C@@](C)(N)CO)cc2)c1", "measurementTarget": "Mus musculus", "Activity": "inactive"}
{"smilesInput": "CCCOc1cccc(Oc2ccc(NC(=O)[C@@](C)(N)CO)cc2)c1", "measurementTarget": "Mus musculus", "Activity": "33%"}
{"smilesInput": "C[C@](N)(CO)C(=O)Nc1ccc(OCCc2ccc(-c3ccncc3)cc2)cc1", "measurementTarget": "Mus musculus", "Activity": "78%"}
{"smilesInput": "CCc1ccc(-c2ccc(CCOc3ccc(NC(=O)[C@@](C)(N)CO)cc3)cc2)cc1", "measurementTarget": "Mus musculus", "Activity": "inactive"}
{"smilesInput": "Cc1noc(C)c1-c1ccc(CCOc2ccc(NC(=O)[C@@](C)(N)CO)cc2)cc1", "measurementTarget": "Mus musculus", "Activity": "62%"}
{"smilesInput": "Cc1ccc(-c2ccc(NC(=O)[C@@](C)(N)CO)cc2)cc1", "measurementTarget": "Mus musculus", "Activity": "18%"}
{"smilesInput": "C[C@](N)(CO)C(=O)Nc1ccc(OCCc2ccc(-c3ccc(Cl)cc3)cc2)cc1", "measurementTarget": "Mus musculus", "Activity": "inactive"}

Which value of Activity has been reported for "COc1ccc(CCOc2ccc(NC(=O)[C@@](C)(N)CO)cc2)cc1" in the records?
inactive

I would be grateful if you could share the reported Activity for "CCCCOc1cccc(-c2ccc(NC(=O)[C@@](C)(N)CO)cc2)c1" .
16%

Fill blank: measured Activity of the compound "CCc1ccc(-c2ccc(NC(=O)[C@@](C)(N)CO)cc2)cc1" is ____.
29%

# input compound: "CCCOc1cccc(-c2ccc(NC(=O)[C@@](C)(N)CO)cc2)c1" ; wanted: its Activity
20%

Entry "C[C@](N)(CO)C(=O)Nc1ccc(OCCc2cccc(-c3ccccc3)c2)cc1" : reported Activity = ?
inactive

Look at this compound and give its reported Activity. "CC(C)Oc1cccc(Oc2ccc(NC(=O)[C@@](C)(N)CO)cc2)c1"
inactive

Name the recorded Activity for "COc1cccc(-c2ccc(NC(=O)[C@@](C)(N)CO)cc2)c1" .
34%
